Attribution: paper PMC6150240

# System: isolated thoracic aortic rings of male Wistar rats
# Experiment notes: Vasodilation activity screening: isolated thoracic aortic rings pre-contracted with norepinephrine hydrochloride
# Condition summary: Rattus norvegicus, norepinephrine hydrochloride 10^−6 M, three replicates, read-out: Potency (IC50), concentration necessary for 50% reduction of maximal norepinephrine hydrochloride induced contracture
Known IC50 of a selection of compounds

# Compound, Experimental system, Units of measure, IC50
rows = [
    ("CCOc1nc(-c2ccc(OC)cc2)cc(-c2cn(-c3ccccc3)nc2-c2cc3ccccc3o2)c1C#N [Compound 4l]", "isolated thoracic aortic rings of male Wistar rats", "µM", 291),
    ("COc1nc(-c2ccccc2)cc(-c2cn(-c3ccccc3)nc2-c2cc3ccccc3o2)c1C#N [Compound 4a]", "isolated thoracic aortic rings of male Wistar rats", "µM", 281),
    ("CCOc1nc(-c2ccccn2)cc(-c2cn(-c3ccccc3)nc2-c2cc3ccccc3o2)c1C#N [Compound 4v]", "isolated thoracic aortic rings of male Wistar rats", "µM", 370),
    ("CCOc1nc(-c2ccc(Br)cc2)cc(-c2cn(-c3ccccc3)nc2-c2cc3ccccc3o2)c1C#N [Compound 4f]", "isolated thoracic aortic rings of male Wistar rats", "µM", 267),
    ("CCOc1nc(-c2ccc(Cl)cc2)cc(-c2cn(-c3ccccc3)nc2-c2cc3ccccc3o2)c1C#N [Compound 4d]", "isolated thoracic aortic rings of male Wistar rats", "µM", 397),
    ("CCOc1nc(-c2nc3ccccc3n2C)cc(-c2cn(-c3ccccc3)nc2-c2cc3ccccc3o2)c1C#N [Compound 4x]", "isolated thoracic aortic rings of male Wistar rats", "µM", 299),
    ("COc1nc(-c2nc3ccccc3n2C)cc(-c2cn(-c3ccccc3)nc2-c2cc3ccccc3o2)c1C#N [Compound 4w]", "isolated thoracic aortic rings of male Wistar rats", "µM", 223),
    ("COc1ccc(-c2cc(-c3cn(-c4ccccc4)nc3-c3cc4ccccc4o3)c(C#N)c(OC)n2)cc1 [Compound 4k]", "isolated thoracic aortic rings of male Wistar rats", "µM", 428),
    ("CCOc1nc(-c2ccc[nH]2)cc(-c2cn(-c3ccccc3)nc2-c2cc3ccccc3o2)c1C#N [Compound 4p]", "isolated thoracic aortic rings of male Wistar rats", "µM", 400),
]
